The reported measurements were obtained from patent US20240158446A1.

Task for the reader: assign each of the following compounds its reported pKd.
biological target: GDP-bound KRAS wild-type protein (Homo sapiens); test: Binding to KRAS by surface plasmon resonance (SPR), Single Cycle Kinetics; conditions: SPR, Single Cycle Kinetics, 1:1 binding model; GDP-bound KRAS wild-type protein; read-out: KRAS KD
Sequence (P01116 whole entry): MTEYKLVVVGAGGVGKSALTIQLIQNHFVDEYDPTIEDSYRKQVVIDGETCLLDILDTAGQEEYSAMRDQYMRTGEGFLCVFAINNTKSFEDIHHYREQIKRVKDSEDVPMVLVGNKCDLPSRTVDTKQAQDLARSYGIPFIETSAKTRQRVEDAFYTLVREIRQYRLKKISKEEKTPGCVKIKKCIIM
One number for each entry, as −log10 of the molar value.

Consider the reported pKd for these compounds:
>  <item.smiles>
CCO[C@@H]1C[C@H]2C(=O)NC3(CCC3)C(=O)N(C)[C@@H](C3CCCC3)C(=O)N(C)[C@H](C(=O)N(C)C)CC(=O)N(C)[C@@H](CC(C)C)C(=O)N[C@@H]([C@@H](C)CC)C(=O)N(C)CC(=O)N(C)[C@H]3C/C=C\CCN(C3=O)[C@@H](Cc3ccc(C(F)(F)F)cc3)C(=O)N(C)CC(=O)N[C@@H](CCc3ccc(C(F)(F)F)c(OC)c3)C(=O)N2C1

>  <assay.result>
10.22

$$$$
>  <item.smiles>
CCO[C@@H]1C[C@H]2C(=O)NC3(CCC3)C(=O)N(C)[C@@H](C3CCCC3)C(=O)N(C)[C@H](C(=O)N(C)C)CC(=O)N(C)[C@@H](CC(C)C)C(=O)N[C@@H]([C@@H](C)CC)C(=O)N(C)CC(=O)N(C)[C@H]3C/C=C\CCN(C3=O)[C@@H](Cc3ccc(F)cc3)C(=O)N(C)CC(=O)N[C@@H](CCc3cc(F)c(C(F)(F)F)c(F)c3)C(=O)N2C1

>  <assay.result>
10.09

$$$$

Can you look up the measured pKd of `CC[C@H](C)[C@@H]1NC(=O)[C@H](CC2CC2)N(C)C(=O)C[C@@H](C(=O)N(C)C)N(C)C(=O)[C@H](C2CCCC2)N(C)C(=O)C2(CCCC2)NC(=O)[C@@H]2CCCN2C(=O)[C@H](CCc2ccc(C(F)(F)F)c(Cl)c2)NC(=O)CN(C)C(=O)[C@H](Cc2ccc(C(F)(F)F)cc2)N2C[C@H](C)CC[C@@H](C2=O)N(C)C(=O)CN(C)C1=O` for me?
10.08
